Ref: patent US9969694B2

- assayed_target: His-tagged recombinant human TrkA (Homo sapiens, UniProt P04629)
- Construct: 6HIS tagged cytoplasmic domain from Invitrogen, Catalog No. PV3144
- Sequence (P04629 440-796 limits assumed): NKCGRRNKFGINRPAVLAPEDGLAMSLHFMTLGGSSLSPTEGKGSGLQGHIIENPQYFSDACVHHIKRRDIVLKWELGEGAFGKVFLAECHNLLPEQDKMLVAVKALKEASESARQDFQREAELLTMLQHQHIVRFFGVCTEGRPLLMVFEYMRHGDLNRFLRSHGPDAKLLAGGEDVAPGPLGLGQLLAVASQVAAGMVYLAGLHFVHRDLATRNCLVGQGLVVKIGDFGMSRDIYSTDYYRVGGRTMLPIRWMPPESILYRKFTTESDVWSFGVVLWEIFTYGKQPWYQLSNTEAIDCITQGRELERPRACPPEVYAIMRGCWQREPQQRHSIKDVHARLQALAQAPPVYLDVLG
- assay_info: TrkA Kinase Binding Assay (LanthaScreen Eu)
- assay_setup: averaged IC50; TR-FRET binding, 60 min, 22° C.; read-out: TrkA Enzyme IC50
readout_kind: IC50

As a guide, the following entries are already answered.
molecule | readout_kind | result
COCc1ccc(OC(F)(F)F)c(CNC(=O)Nc2c(C)c(OCCO)nn2-c2ccccc2)c1 | IC50 | < 100 nM
COCc1ccc(OC(F)(F)F)c(CNC(=O)Nc2c(C)c(O[C@H]3CCNC3)nn2-c2ccccc2)c1 | IC50 | < 100 nM

Query :: Requested read-out: IC50. Entry: COCc1ccc(OC2CCC2)c(CNC(=O)Nc2c(C)c(-c3ccc(C)nc3)nn2-c2ccccc2)c1
Result :: < 100 nM

Query :: Entry COCc1cc(CNC(=O)Nc2c(C)c(-c3cnn(C)c3)nn2-c2ccccc2)c(C2CCC2)cc1F : reported IC50 = ?
Result :: < 100 nM

Query :: What does the record list as IC50 for COCc1ccc(OC(F)(F)F)c(CNC(=O)Nc2c(C)c(OC[C@@H]3CCNC[C@H]3F)nn2-c2ccccc2)c1 ?
Result :: < 100 nM

Query :: Which value of IC50 has been reported for COCc1cccc(C(NC(=O)Nc2c(C)c(-c3cnn(C)c3)nn2-c2ccccc2)C(F)(F)F)c1 (stereo not drawn) in the records?
Result :: > 1000 nM

Query :: Given COCc1ccc(OC(F)(F)F)c(CNC(=O)Nc2c(C)c(OCc3nnc(C)o3)nn2-c2ccccc2)c1 , state its recorded IC50.
Result :: < 100 nM

###

- assayed_target: His-tagged recombinant human TrkA (Homo sapiens, UniProt P04629)
- Construct: 6HIS tagged cytoplasmic domain from Invitrogen, Catalog No. PV3144
- assay_info: TrkA Kinase Binding Assay (LanthaScreen Eu)
- assay_setup: averaged IC50; TR-FRET binding, 60 min, 22° C.; read-out: TrkA Enzyme IC50
Where a name gives a salt, the structure may show the parent alone.
readout_kind: IC50

molecule | result
COCc1ccc(OC(F)(F)F)c(CNC(=O)Nc2c(C)c(OC[C@@H]3CNCCO3)nn2-c2ccccc2)c1 [Example 112] | < 0.1 µM
COCc1cccc(C(NC(=O)Nc2c(C)c(-c3ccn(C)c(=O)c3)nn2-c2ccccc2)C2CC2)c1 (stereo not drawn) [Example 27] | 0.1 to 1 µM
COCc1ccc(C2(F)COC2)c(CNC(=O)Nc2c(C)c(-c3cnn(C)c3)nn2-c2ccccc2)c1 [Example 31] | < 0.1 µM
COCc1ccc(OC(F)(F)F)c(CNC(=O)Nc2c(C)c(OCC3(F)CCNCC3)nn2-c2ccccc2)c1 [Example 70] | < 0.1 µM
COCc1ccc(C2CC2)c(CNC(=O)Nc2c(C)c(-c3cnn(C)c3)nn2-c2ccccc2)c1 [Example 6] | < 0.1 µM

Query :: What value of IC50 on His-tagged recombinant human TrkA (Homo sapiens, UniProt P04629) does Cc1ccccc1CC(NC(=O)Nc1c2c(nn1-c1ccccc1)CCC2)c1ccccc1 (stereo not drawn) [Example 39] have?
Result :: 0.1 to 1 µM

Query :: Give recorded IC50 with His-tagged recombinant human TrkA (Homo sapiens, UniProt P04629) for the following molecule: O=C(Nc1c2c(nn1-c1ccccc1)CCC2)NC(Cc1ccccc1)Cc1ccccc1 [Example 42]
Result :: < 0.1 µM

Query :: Provide the documented IC50 with His-tagged recombinant human TrkA (Homo sapiens, UniProt P04629) as the system for Cc1c(OCC2CCN(C)CC2)nn(-c2ccccc2)c1NC(=O)NCc1ccccc1OC(F)(F)F [Example 115]
Result :: < 0.1 µM

Query :: Checklist item: IC50 tested on His-tagged recombinant human TrkA (Homo sapiens, UniProt P04629), entry COCc1ccc(OC(F)(F)F)c(CNC(=O)Nc2c(C)c(OC[C@H]3CCNC[C@H]3F)nn2-c2ccccc2)c1 [Example 88] , value?
Result :: < 0.1 µM

Query :: Query IC50 on His-tagged recombinant human TrkA (Homo sapiens, UniProt P04629) for COCc1ccc(OC(F)(F)F)c(CNC(=O)Nc2c(C)c(OC[C@@H]3COCCN3)nn2-c2ccccc2)c1 [Example 103]
Result :: < 0.1 µM

Query :: For His-tagged recombinant human TrkA (Homo sapiens, UniProt P04629), provide IC50 of COCc1ccc(-c2ccccc2)c(CNC(=O)Nc2c(C)c(-c3cnn(C)c3)nn2-c2ccccc2)c1 [Example 116] please.
Result :: < 0.1 µM

Query :: For the record COCc1ccc(OC(F)(F)F)c(CNC(=O)Nc2c(C)c(-c3cnn(C)c3)nn2-c2ccccc2)c1 [Example 22] , what value of IC50 is listed for His-tagged recombinant human TrkA (Homo sapiens, UniProt P04629)?
Result :: 0.1 to 1 µM

Query :: Could you share what IC50 was measured for COCc1cccc(C(C)NC(=O)Nc2c(C)c(-c3cnn(C)c3)nn2-c2ccccc2)c1 (stereo not drawn) [Example 29, 2,2,2-trifluoroacetate] , tested on His-tagged recombinant human TrkA (Homo sapiens, UniProt P04629)?
Result :: 0.1 to 1 µM

Query :: Item: COCc1ccc(OC(F)(F)F)c(CNC(=O)Nc2c(C)c(OCC3CCN(C)C3)nn2-c2ccccc2)c1 (stereo not drawn) [Example 106, hydrochloride] Test system: His-tagged recombinant human TrkA (Homo sapiens, UniProt P04629) Read-out: IC50 Value: ?
Result :: < 0.1 µM

Query :: Notebook entry, His-tagged recombinant human TrkA (Homo sapiens, UniProt P04629) assay: IC50 of COCc1ccc(OC(F)(F)F)c(CNC(=O)Nc2c(C)c(OCC3CCN(C)CC3)nn2-c2ccccc2)c1 [Example 93] = ?
Result :: < 0.1 µM

###

Listed below: IC50 values for each entry.
- assayed_target: His-tagged recombinant human TrkA (Homo sapiens)
- Construct: 6HIS tagged cytoplasmic domain from Invitrogen, Catalog No. PV3144
- assay_info: TrkA Kinase Binding Assay (LanthaScreen Eu)
- assay_setup: averaged IC50; TR-FRET binding, 60 min, 22° C.; read-out: TrkA Enzyme IC50
- Method: TrkA binding activity was determined in a TrkA LanthaScreen™ Eu Kinase Binding Assay. […] After 60-minute incubation at 22° C., the reaction was measured using the EnVision mutlimode plate reader (PerkinElmer) via TR-FRET dual wavelength detection at […]. The percent of control was calculated using a ratiometric emission factor. The IC50 values were determined by fitting a four parameter model to the percent of control data. […]

Look over these answered cases.
molecule | IC50
COCc1ccc(OC(F)(F)F)c(CNC(=O)Nc2c(C)c(OC[C@H](C)N)nn2-c2ccccc2)c1 [Example 96] | < 100 nM
COCc1cccc(C(NC(=O)Nc2c(C)c(-c3ccc(=O)n(C)c3)nn2-c2ccccc2)C2CC2)c1 (stereo not shown) [Example 26] | 100 to 1000 nM
COCc1ccc(C2CC2)c(C(C)NC(=O)Nc2c(C)c(-c3cnn(C)c3)nn2-c2ccccc2)c1 (stereo not shown) [Example 30] | 100 to 1000 nM

Query :: Suppose we examine the molecule COCc1ccc(OC(F)(F)F)c(CNC(=O)Nc2c(C)c(-c3cncc(OC)c3)nn2-c2ccccc2)c1 [Example 54] ; what IC50 value has been reported?
Result :: < 100 nM

###

- assayed_target: His-tagged recombinant human TrkA (Homo sapiens)
- Construct: 6HIS tagged cytoplasmic domain from Invitrogen, Catalog No. PV3144
- assay_info: TrkA Kinase Binding Assay (LanthaScreen Eu)
- assay_setup: averaged IC50; TR-FRET binding, 60 min, 22° C.; read-out: TrkA Enzyme IC50
Items are presented alongside their recorded IC50.

For orientation, consider the following solved cases.
molecule | assayed_target | IC50
COCc1ccc(OC(F)(F)F)c(CNC(=O)Nc2c(C)c(OC3CC4(C3)CN(C)C4)nn2-c2ccccc2)c1 [Example 85] | His-tagged recombinant human TrkA (Homo sapiens) | < 100 nM
COCc1ccc(C2CCC2)c(CNC(=O)Nc2c3c(nn2-c2ccccc2)CSC3)c1 [Example 120] | His-tagged recombinant human TrkA (Homo sapiens) | < 100 nM
COCc1ccc(OC(F)F)c(CNC(=O)Nc2c(C)c(-c3cncc(OC)c3)nn2-c2ccccc2)c1 [Example 52] | His-tagged recombinant human TrkA (Homo sapiens) | < 100 nM

Continue with the next molecule.
Query :: I would be grateful if you could share the reported IC50 for COCc1ccc(OC(F)(F)F)c(CNC(=O)Nc2c(C)c(OC[C@@H]3CCN3)nn2-c2ccccc2)c1 [Example 92] .
Result :: < 100 nM

###

- assayed_target: His-tagged recombinant human TrkA (Homo sapiens, UniProt P04629)
- Construct: 6HIS tagged cytoplasmic domain from Invitrogen, Catalog No. PV3144
- assay_info: TrkA Kinase Binding Assay (LanthaScreen Eu)
- assay_setup: averaged IC50; TR-FRET binding, 60 min, 22° C.; read-out: TrkA Enzyme IC50
readout_kind: IC50

molecule | result
COCc1ccc(OC(F)(F)F)c(CNC(=O)Nc2c(C)c(OC3CC4(CCN4)C3)nn2-c2ccccc2)c1 (stereo not shown) | < 100 nM

Query :: Given COCc1ccc(OC(F)(F)F)c(CNC(=O)Nc2c(C)c(O[C@H]3CNC[C@H]3F)nn2-c2ccccc2)c1 , state its recorded IC50.
Result :: < 100 nM

Query :: Data request, read-out IC50, for COCc1ccc(OC(F)(F)F)c(CNC(=O)Nc2c(C)c(-c3ccc(OC)nc3)nn2-c2ccccc2)c1
Result :: < 100 nM

Query :: Query (molecule): COCc1ccc(OC(F)(F)F)c(CNC(=O)Nc2c(C)c(O[C@@H]3CCN(C)C[C@@H]3F)nn2-c2ccccc2)c1 ; field requested: IC50
Result :: < 100 nM

Query :: Dear colleague, I am looking for the recorded IC50 of the following molecule: O=C(Nc1c2c(nn1-c1ccccc1)CCC2)NC(Cc1ccccc1)Cc1ccc(F)c(F)c1 (stereo not shown)
Result :: < 100 nM

Query :: Quick one: IC50 for COCc1ccc(OC(F)(F)F)c(CNC(=O)Nc2c(C)c(OC3CC4(CCN4C)C3)nn2-c2ccccc2)c1 (stereo not shown) [Example 94, 2,2,2-trifluoroacetate] ?
Result :: < 100 nM

Query :: Give its IC50 value. Item: COCc1cccc(C(Cc2ccccc2)NC(=O)Nc2c(C)c(-c3cnn(C)c3)nn2-c2ccccc2)c1 (stereo not shown)
Result :: < 100 nM
